- measured target: T1, RBM7 RRM K40A (Homo sapiens, UniProt Q9Y580 6-94, K40A)
- T1 sequence: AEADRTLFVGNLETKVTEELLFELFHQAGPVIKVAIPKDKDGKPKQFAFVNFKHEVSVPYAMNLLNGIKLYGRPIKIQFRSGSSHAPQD
- assay summary: fluorescence anisotropy; FA: 50 mM Tris pH 7.0 (also given as pH 8), 200 mM NaCl, 10 mM 2-mercaptoethanol, 20 C; NMR: 20 mM Bis-Tris pH 7.0, 200 mM NaCl, 4 mM 2-mercaptoethanol; pull-down: HSB, 1 h at 30 C
- conditions used: protein: recombinant; tags: 6xHis-Smt3 removed with Ulp1; label: 5' fluorescein
value type: pKd
Expect pKd as a plain number equal to -log10 of the molar concentration.

Lookup: State the recorded pKd for this entry: CUCUCUC (ssRNA) [Y7]
Found: 3.70
